assay: Plasma protein binding, equilibrium dialysis, dog; type: in vitro ADME; details: plasma (10% plasma, extrapolated to 100% plasma), Beagle plasma, 18 hours at 37° C.
Property Label: fraction unbound at 18 h, 10 µM

CCc1c(C)nn2c(N)c(C#N)c(NCCc3ccn(C4COCC4CO)n3)nc12 (single isomer, unassigned; (-)) [Example 122b] : 0.15

(A) CCc1c(C)nn2c(N)c(C#N)c(NCCc3ccn(C4(CO)CC4)n3)nc12 [Example 39]
(B) Cc1cccc(CCNc2nc3c(C)c(C)nn3c(N)c2C#N)n1 [Example 13]
Request: Out of A and B , name the one with the higher fraction unbound at 18 h, 10 µM. Write down the label attached to your selection.
Result: A
(A: 0.156, B: 0.09)

----------
Target: A2B receptor (Homo sapiens)
Sequence (P29275 1-332): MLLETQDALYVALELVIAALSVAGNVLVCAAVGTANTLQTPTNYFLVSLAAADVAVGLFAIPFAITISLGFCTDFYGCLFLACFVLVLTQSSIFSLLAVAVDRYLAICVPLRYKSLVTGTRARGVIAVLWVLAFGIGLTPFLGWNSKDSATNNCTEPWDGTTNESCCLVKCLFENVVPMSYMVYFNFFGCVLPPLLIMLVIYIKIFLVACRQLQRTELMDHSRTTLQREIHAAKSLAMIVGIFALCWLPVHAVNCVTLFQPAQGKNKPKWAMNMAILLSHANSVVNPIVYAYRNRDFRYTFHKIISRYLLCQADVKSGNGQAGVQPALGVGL
Assay: A2bR antagonism IC50, cAMP TR-FRET in HEK-293 cells, high concentration of adenosine (30 μM)
Conditions: A2BR IC50 (nM) (@30 μM Adenosine), HEK-293 cells expressing A2B receptor; agonist adenosine 30 μM; 2% HSA; inhibition of cAMP
Property Label: IC50 (nM)

(P) CCc1c(C)nn2c(N)c(C#N)c(NCCc3ccn(C4(CCNC(C)=O)CC4)n3)nc12
(Q) CCc1c(C)nn2c(N)c(C#N)c(NCCc3cccc(CNCCO)n3)nc12
(R) Cc1nn2c(N)c(C#N)c(NCCc3ccn(C4(CO)CC4)n3)nc2c1C(F)(F)F
Request: Put the items above in order of decreasing IC50. Provide your answer as the labels ordered per the instruction.
Result: R, Q, P
(R: 10000 nM, Q: 1430 nM, P: 988 nM)

----------
molecular target: UniProtKB P29275; test: A2bR antagonism IC50, cAMP TR-FRET in HEK-293 cells, high concentration of adenosine (30 μM); details: A2BR IC50 (nM) (@30 μM Adenosine), HEK-293 cells expressing A2B receptor; agonist adenosine 30 μM; 2% HSA; inhibition of cAMP
Property Label: IC50 (nM)

Cc1nn2c(N)c(C#N)c(NCCc3ccn(C4(CCO)CC4)n3)nc2c1Cl [Example 112] : 10800
CCCc1c(C)nn2c(N)c(C#N)c(NCCc3ccn(C4CCC4CO)n3)nc12 (single isomer, unassigned; (-)) [Example 165b] : 9160

----------
molecular target: A2B receptor (Homo sapiens, UniProt P29275); assay: A2bR antagonism IC50, cAMP TR-FRET in HEK-293 cells, high concentration of adenosine (30 μM); conditions: A2BR IC50 (nM) (@30 μM Adenosine), HEK-293 cells expressing A2B receptor; agonist adenosine 30 μM; 2% HSA; inhibition of cAMP;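 note: compounds preincubated 10 min with cells, then adenosine stimulation 30 min at room temperature in buffer with Rolipram 100 µM and EHNA 30 µM, TR-FRET read after 1 h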
Property Label: IC50 (nM)

CCc1c(C(F)F)nn2c(N)c(C#N)c(NCCc3ccn(C4CCC4CO)n3)nc12 (centres unmarked) : 8300
CCc1c(C)nn2c(N)c(C#N)c(NCCc3cccc(C)n3)nc12 : 2380
CCc1cccc(CCNc2nc3c(C)c(C)nn3c(N)c2C#N)n1 : 2380
CCc1c(C)nn2c(N)c(C#N)c(NCCc3ccn(C4CCC4CO)n3)nc12 (racemic) [Example 77] : 700
CCc1c(C)nn2c(N)c(C#N)c(NCCc3ccn(C4(CCN)CC4)n3)nc12 : 2740
Cc1nn2c(N)c(C#N)c(NCCc3cccc(CNCCO)n3)nc2c1C : 3870
Cc1nn2c(N)c(C#N)c(NCCc3cccn(CCO)c3=O)nc2c1Cl : 1230
Cc1nn2c(N)c(C#N)c(NCCc3cccn(CCCO)c3=O)nc2c1C : 2050

(P) Cc1nn2c(N)c(C#N)c(NCCc3cccc(C4CC4CO)n3)nc2c1C (centres unmarked)
(Q) CCc1c(C)nn2c(N)c(C#N)c(NCCc3ccn(C4(CNC(C)=O)CC4)n3)nc12
Request: Out of P and Q , name the one with the higher IC50. Write down the label attached to your selection.
Result: Q

meta.source: patent US12577247B2
